Test system: HTT mRNA
test-name: Splicing RT-qPCR assay, HTT canonical (CJ) and alternative (AJ) junction mRNA
Type: cell-based, human
run-conditions: Homo sapiens, A673 or K562 cells, 24 hours compound treatment, read-out: HTT AJ (AC50, increase in alternative junction mRNA)
Method: Compounds described herein were used to modulate RNA transcript abundance in cells. The expression of a target mRNA was measured by detecting the formation of an exon-exon junction in the canonical transcript (CJ). A compound mediated exon-inclusion event was detected by observing an increase in formation of a new junction with an alternative exon (AJ). Real-time qPCR assays were used to detect these splicing switches and interrogate the potency of various compounds towards different target genes. […]
parameter: AC50

Consider the following illustrative entries.
{"compound": "CCn1cc2c(N3CCC(NC4CC4)C3)ccc(C(=O)Nc3cc(F)c4nc(C)cn4c3)c2n1 (centres unmarked)", "measured-value": "> 10000 nM"}
{"compound": "CCn1cc2c(N3CC4(CCNC4)C3)ccc(C(=O)Nc3cc(F)c4nc(C)cn4c3)c2n1", "measured-value": "> 10000 nM"}
{"compound": "CCn1cc2c(N3CCC(C)(NC)CC3)ccc(C(=O)Nc3cc(F)c4nc(C)cn4c3)c2n1", "measured-value": "100 to 1000 nM"}

Per the record, Cc1cn2cc(NC(=O)c3ccc(N4CCC(C)(N)CC4)c4cn(C)nc34)cc(F)c2n1 has AC50 of 100 to 1000 nM

Per the record, Cc1cn2cc(NC(=O)c3ccc(N4CCC(N(C)C)C4)c4cn(C)nc34)cc(F)c2n1 (centres unmarked) has AC50 of 100 to 1000 nM

Per the record, Cc1cn2cc(NC(=O)c3ccc(N4CC[C@@H](NC5(CO)CC5)C4)c4cn(C)nc34)cc(F)c2n1 has AC50 of > 10000 nM

Per the record, Cc1cn2cc(NC(=O)c3cc(F)c(N4CCNCC4)c4cn(C)nc34)cc(F)c2n1 has AC50 of 1000 to 10000 nM

Per the record, Cc1cn2cc(NC(=O)c3ccc(N4CCNCC4)c4cn(CC(C)(C)O)nc34)cc(F)c2n1 has AC50 of > 10000 nM

Per the record, CCn1cc2c(N3CCC(NC4C5COCC54)CC3)ccc(C(=O)Nc3cc(F)c4nc(C)cn4c3)c2n1 (centres unmarked) has AC50 of 1000 to 10000 nM

====

Collected AC50 values appear next to each entry.
System: MYB mRNA
test-name: Splicing RT-qPCR assay, MYB canonical (CJ) and alternative (AJ) junction mRNA
Assay type: cell-based, human
run-conditions: Homo sapiens, 24 h, A673 or K562 cells, 24 hours compound treatment, RT-qPCR; read-out: MYB AJ (AC50, increase in alternative junction mRNA)

{"molecule": "CCCCn1cc2c(N3CCNCC3)ccc(C(=O)Nc3cc(F)c4nc(C)cn4c3)c2n1", "AC50": "< 100 nM"}

Per the record, Cc1cn2cc(-c3ccc(C(=O)NC4CCNCC4)c4nn(C)cc34)cc(F)c2n1 has AC50 of 1000 to 10000 nM

====

Collected AC50 values appear next to each entry.
Tested on: HTT mRNA
test-name: Splicing RT-qPCR assay, HTT canonical (CJ) and alternative (AJ) junction mRNA
Type: cell-based, human
run-conditions: Homo sapiens, A673 or K562 cells, 24 hours compound treatment, read-out: HTT AJ (AC50, increase in alternative junction mRNA)

Consider the following illustrative entries.
{"compound": "Cc1cn2cc(NC(=O)c3c(F)cc(N4CCC(N(C)C)C4)c4cn(C)nc34)cc(F)c2n1 (stereo in doubt) [Compound 463]", "AC50": "0.1 to 1 µM"}
{"compound": "Cn1cc2ccc(NC(=O)c3ccc(N4CCNCC4)c4cn(C)nc34)cc2n1", "AC50": "> 10 µM"}
{"compound": "CCNC1CCN(c2ccc(C(=O)Nc3cc(F)c4nc(C)sc4c3)c3nn(C)cc23)CC1", "AC50": "1 to 10 µM"}
{"compound": "CCn1cc2c(N3CCC(NC4CC4)CC3)cc(Cl)c(C(=O)Nc3cc(F)c4nc(C)cn4c3)c2n1", "AC50": "1 to 10 µM"}
{"compound": "Cc1cn2cc(NC(=O)c3ccc(N4CC[C@@H](Nc5ccccc5)C4)c4cn(C)nc34)cc(F)c2n1", "AC50": "> 10 µM"}
{"compound": "Cc1cn2cc(NC(=O)c3ccc(N4CCNCC4)c4c[nH]nc34)cc(F)c2n1", "AC50": "> 10 µM"}

Per the record, Cc1cn2cc(NC(=O)c3ccc(N4CCNCC4)c4cn(C)nc34)c(=O)n(C)c2n1 has AC50 of > 10 µM

Per the record, Cc1cn2cc(NC(=O)c3ccc(N4CC[C@@H](NC5(C#N)CC5)C4)c4cn(C)nc34)cc(F)c2n1 has AC50 of > 10 µM

Per the record, CCn1cc2c(N3CC[C@@](C)(NC)C3)ccc(C(=O)Nc3cc(F)c4nc(C)cn4c3)c2n1 has AC50 of > 10 µM
